All figures here come from PubChem BioAssay.

- assay-system: L-lactate dehydrogenase (Plasmodium falciparum (isolate CDC / Honduras))
- assay-method-text: PfLDH activity inhibition – cell lysate, 3D7 strain, counter-screen for P. falciparum growth inhibition project (AID 2304);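 note: 0% = vehicle and 100% = reference inhibitor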
- conditions-used: P. falciparum 3D7 crude extract, LDH APAD/NBT absorbance; at 2 µM; stronger effect = higher value
recorded-endpoint: inhibition (%)

{"molecule": "CN(C)CCOc1cc(NC(=O)c2ccc(-c3ccc(Cl)cc3Cl)cc2)ccc1-c1ccccc1", "recorded-measurement": -4}
{"molecule": "OC(CNCc1ccccc1OCc1ccccc1)c1cccc(C(F)(F)F)c1 (stereo not drawn)", "recorded-measurement": -2}
{"molecule": "Cc1noc(-c2ccc3c(c2)CCN(CCC2CCC(NC(=O)/C=C/c4cccc(Cl)c4)CC2)CC3)n1 (stereo not drawn)", "recorded-measurement": 4}

----------
- assay-method-text: human hepatoma cell viability loss – ATP luminescence, cytotoxicity control for P. falciparum antimalarial project, primary screen (AID 2303);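 note: 0% = DMSO wells and 100% = digitonin-killed cells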
- conditions-used: HepG2 viability, 24-48 h, at 10 µM, stronger effect = higher value
inhibition by entry:
recorded-endpoint: inhibition (%)

{"compound": "CCCc1ccc(C(=O)N2[C@@H](c3nccs3)[C@@H](C(N)=O)C[C@@]2(CC(C)C)C(=O)O)cc1", "recorded-measurement": 16}
{"compound": "CC(C)[C@H](NC(=O)c1c(F)cccc1F)C(=O)Nc1ccc(Cc2nc3ccccc3s2)cc1", "recorded-measurement": 3}
{"compound": "CN(C)Cc1cccc(-c2ccc(NC(=O)c3ccc4c(=O)n(CCN5CCCCC5)cnc4c3)cc2)c1", "recorded-measurement": 23}
{"compound": "COc1ccc2nccc(N3CCC(SCCNCc4cc5c(cn4)OCCO5)C3)c2n1 (centres undefined)", "recorded-measurement": 30}
{"compound": "O=C(NCCN1CCCCC1)N1CCCN(c2ncnc3cc(-c4ccccc4)sc23)CC1", "recorded-measurement": 2}
{"compound": "Fc1ccc(Nc2ccnc3cc(-c4cccc(CNCCN5CCOCC5)c4)ccc23)c(Cl)c1", "recorded-measurement": 26}
{"compound": "Cc1cccc2[nH]c(-c3cccc(-c4ccc(NC(=O)COc5ccccc5C(N)=O)cc4)c3)nc12", "recorded-measurement": 18}
{"compound": "CN(CC(=O)Nc1ccc(F)c(F)c1F)c1ncnc2sc(-c3ccccc3)cc12", "recorded-measurement": 0}
{"compound": "O=C(CSc1nc(-c2ccccc2Cl)ns1)Nc1ccc2c(c1)OCO2", "recorded-measurement": -8}

----------
- assay-method-text: antimalarial activity against Dd2 strain (AID 2302);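 note: 0% = DMSO untreated growth and 100% = chloroquine plus artemisinin killed control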
- conditions-used: P. falciparum Dd2 in RBCs, LDH growth readout, 72 h; at 2 µM
Active and inactive are the calls of the source.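 Rule for the calls: active = growth inhibition above 50% at the single 2 µM test dose, taken to imply half-maximal potency below 2 µM; inactive = the rest.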
Classes used: 1.0 for active, 0.0 for inactive

{"compound": "O=C(CSc1nc2ccccc2c(=O)n1CC1CCCO1)Nc1cc(C(F)(F)F)ccc1Cl (configuration not stated)", "class-assignment": 1.0}
{"compound": "CCc1cc2c(O)c([N+](=O)[O-])c(=O)oc2cc1OCCCCCOc1cc2oc(=O)c([N+](=O)[O-])c(O)c2cc1CC", "class-assignment": 0.0}
{"compound": "CC1CN(Cc2ccc(-c3ccc(-c4nc5ccc(F)cc5[nH]4)s3)cc2)CC(C)O1 (configuration not stated)", "class-assignment": 1.0}
{"compound": "CC(=O)Nc1ccc(OCCCN(Cc2ccccc2C(F)(F)F)c2ccc(C(F)(F)F)c(C#N)c2)c(Cl)c1", "class-assignment": 0.0}
{"compound": "N#Cc1cccc(C(=O)Nc2ccc(-c3cccc(CN4CCCC4)c3)cc2)c1", "class-assignment": 1.0}
{"compound": "Cc1noc(C)c1-c1cccc(CNCc2ccc(-c3ccc(-c4nc5c(C)cccc5[nH]4)cc3)cc2)c1", "class-assignment": 1.0}
{"compound": "Cc1cc(=O)c(-c2ccc(Oc3cccc(Cl)c3)cc2)c(C)[nH]1", "class-assignment": 1.0}
{"compound": "N#Cc1ccc(-c2ccc(C(=O)NCCCCN3CCC(c4cn(CCO)c5ccccc45)CC3)cc2)cc1", "class-assignment": 0.0}
{"compound": "CCCCSc1nc2c(c(=O)n1Cc1ccco1)C1(CCCCC1)Cc1ccccc1-2", "class-assignment": 1.0}
{"compound": "O=C(NCCc1ccc(F)cc1)c1ccc(N2CCN(c3ccncc3)CC2)nc1", "class-assignment": 0.0}
{"compound": "COc1ccc(NC(C)C(=O)Nc2ccc(Br)cc2)cc1S(=O)(=O)N1CCCCC1 (configuration not stated)", "class-assignment": 1.0}
{"compound": "CCCCC(=O)Nc1ccc(Nc2nc(C)cc(N3CCCC3)n2)cc1", "class-assignment": 1.0}
